This collection of values is drawn from ChEMBL document CHEMBL4041516.

Assay: Volume of distribution in Sprague-Dawley rat at 5 mg/kg, iv
Assay type: ADME, organism-based
Conditions: in vivo
measurement_type: Vd
# include the unit after the value

For this molecule ( CC[C@H](Nc1nc(N)nc(N)c1C#N)c1nc2cccc(C#CCCCC(=O)N3CCOCC3)c2c(=O)n1-c1ccccc1 ), measured Vd is 0.545 L/kg

---

Biological target: Phosphatidylinositol 4,5-bisphosphate 3-kinase catalytic subunit beta isoform (Homo sapiens)
Sequence (P42338 whole entry, canonical isoform): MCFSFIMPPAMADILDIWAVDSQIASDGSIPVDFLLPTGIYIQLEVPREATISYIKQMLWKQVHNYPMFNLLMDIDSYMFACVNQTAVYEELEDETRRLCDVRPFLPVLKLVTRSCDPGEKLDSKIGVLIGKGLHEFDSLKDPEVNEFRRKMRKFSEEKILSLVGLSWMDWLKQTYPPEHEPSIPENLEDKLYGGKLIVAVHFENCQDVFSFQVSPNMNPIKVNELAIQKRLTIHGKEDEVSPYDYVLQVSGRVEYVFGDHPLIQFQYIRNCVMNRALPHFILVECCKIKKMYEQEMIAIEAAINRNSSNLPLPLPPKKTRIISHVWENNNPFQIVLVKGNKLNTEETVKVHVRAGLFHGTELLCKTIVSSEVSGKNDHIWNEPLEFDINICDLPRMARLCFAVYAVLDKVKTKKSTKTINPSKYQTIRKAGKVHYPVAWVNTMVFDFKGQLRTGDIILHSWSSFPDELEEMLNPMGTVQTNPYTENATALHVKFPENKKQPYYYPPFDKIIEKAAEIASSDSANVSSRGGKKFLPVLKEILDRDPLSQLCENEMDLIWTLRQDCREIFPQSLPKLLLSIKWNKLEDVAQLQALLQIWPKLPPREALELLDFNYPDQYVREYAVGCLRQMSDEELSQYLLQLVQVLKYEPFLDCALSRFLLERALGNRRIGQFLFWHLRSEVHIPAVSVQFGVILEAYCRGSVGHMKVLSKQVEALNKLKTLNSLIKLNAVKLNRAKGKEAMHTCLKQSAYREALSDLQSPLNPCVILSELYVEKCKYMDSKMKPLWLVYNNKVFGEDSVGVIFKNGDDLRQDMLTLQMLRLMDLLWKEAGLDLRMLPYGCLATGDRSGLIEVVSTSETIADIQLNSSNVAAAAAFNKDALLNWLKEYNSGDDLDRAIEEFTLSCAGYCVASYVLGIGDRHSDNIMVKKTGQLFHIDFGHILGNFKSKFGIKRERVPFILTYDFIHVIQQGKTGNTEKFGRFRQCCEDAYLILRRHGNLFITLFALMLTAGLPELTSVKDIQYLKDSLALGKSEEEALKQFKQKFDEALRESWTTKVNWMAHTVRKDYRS
Experiment: Inhibition of PI3Kbeta (unknown origin) using PIP2 as substrate measured after 30 mins by HTRF assay
measurement_type: pIC50
Interpret pIC50 as the negative base-10 log of the concentration measured in mol/L.

For this molecule ( CC[C@H](Nc1nc(N)nc(N)c1C#N)c1nc2cccc(C#CCCCC(=O)N3CCCC3)c2c(=O)n1-c1ccccc1 ), measured pIC50 is 6.28

---

Assay: AUClast in Sprague-Dawley rat at 10 mg/kg, po
Type: ADME, organism-based
Parameters: dose 10 mg/kg, time 0 - last, route oral
Details: in vivo
measurement_type: AUC(0-t) (ng·h/mL)
Numbers only here, please. The scale is ng·h/mL.

For this compound ( CC[C@H](Nc1nc(N)nc(N)c1C#N)c1nc2cccc(C#CCCCC(=O)N3CCOCC3)c2c(=O)n1-c1ccccc1 ), measured AUC(0-t) is 938

---

Biological target: Phosphatidylinositol 4,5-bisphosphate 3-kinase catalytic subunit delta isoform (Homo sapiens, UniProt O00329)
Sequence (O00329 whole entry): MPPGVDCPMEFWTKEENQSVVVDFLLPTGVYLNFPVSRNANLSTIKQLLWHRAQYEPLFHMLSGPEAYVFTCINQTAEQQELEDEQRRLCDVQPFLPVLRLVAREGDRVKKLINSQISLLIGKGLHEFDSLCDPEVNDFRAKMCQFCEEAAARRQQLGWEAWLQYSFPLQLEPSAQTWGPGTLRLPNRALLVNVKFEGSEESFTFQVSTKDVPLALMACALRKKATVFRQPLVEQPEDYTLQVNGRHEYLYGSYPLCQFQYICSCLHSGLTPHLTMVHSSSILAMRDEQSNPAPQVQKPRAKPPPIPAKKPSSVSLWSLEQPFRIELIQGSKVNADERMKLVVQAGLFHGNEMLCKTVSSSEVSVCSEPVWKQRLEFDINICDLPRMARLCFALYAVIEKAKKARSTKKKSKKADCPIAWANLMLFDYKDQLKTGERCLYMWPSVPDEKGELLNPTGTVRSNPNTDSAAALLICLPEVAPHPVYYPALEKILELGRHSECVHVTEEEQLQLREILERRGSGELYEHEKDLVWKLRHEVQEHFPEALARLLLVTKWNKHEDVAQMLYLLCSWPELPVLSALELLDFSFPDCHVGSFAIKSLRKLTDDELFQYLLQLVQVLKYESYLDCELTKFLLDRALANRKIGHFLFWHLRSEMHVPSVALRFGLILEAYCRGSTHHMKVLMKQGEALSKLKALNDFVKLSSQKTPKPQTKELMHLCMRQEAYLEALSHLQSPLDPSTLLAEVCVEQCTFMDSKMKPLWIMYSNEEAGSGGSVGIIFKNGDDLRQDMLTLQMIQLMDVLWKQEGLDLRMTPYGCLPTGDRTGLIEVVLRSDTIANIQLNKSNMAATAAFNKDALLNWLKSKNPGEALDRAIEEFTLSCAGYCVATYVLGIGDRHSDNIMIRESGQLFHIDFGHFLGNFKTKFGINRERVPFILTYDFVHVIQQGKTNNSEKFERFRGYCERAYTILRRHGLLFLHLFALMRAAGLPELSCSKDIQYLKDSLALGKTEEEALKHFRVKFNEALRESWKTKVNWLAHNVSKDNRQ
Test: Inhibition of PI3Kdelta (unknown origin) using PIP2 as substrate measured after 30 mins by HTRF assay
pIC50: −log10 of the molar value.
Everything with pIC50 lower than 7 is false; everything else, including exactly 7, is true.

Would you please look over these solved cases?
CC[C@H](Nc1nc(N)nc(N)c1C#N)c1nc2cccc(C#CCCCO)c2c(=O)n1-c1ccccc1; true
Cc1nc(N)nc(N2CCC[C@H]2c2nc3cccc(C#CCCCC(=O)N4CCCC4)c3c(=O)n2-c2ccccc2)c1C#N; true
C=CC(O)C(C)(C)N1CCN(CC#Cc2cccc3nc([C@@H]4CCCN4c4ncnc(N)c4C#N)n(-c4ccccc4)c(=O)c23)CC1 (stereo partly specified); true

### Prompt Dear colleague, could you confirm whether CCOC(=O)c1cnc(C#Cc2cccc3nc([C@@H]4CCCN4c4ncnc(N)c4C#N)n(-c4ccccc4)c(=O)c23)s1 has pIC50 at or above 7?
### Response false

### Prompt Dear colleague, could you confirm whether CC(C)(F)CN1CCN(CC#Cc2cccc3nc([C@@H]4CCCN4c4ncnc(N)c4C#N)n(-c4ccccc4)c(=O)c23)CC1 has pIC50 at or above 7?
### Response false

### Prompt Dear colleague, could you confirm whether N#Cc1c(N)ncnc1N1CC[C@H]1c1nc2cccc(C#CCCCC(=O)N3CCOCC3)c2c(=O)n1-c1ccccc1 has pIC50 at or above 7?
### Response false

### Prompt Dear colleague, could you confirm whether N#Cc1c(N)ncnc1N1CCC[C@H]1c1nc2cccc(C#Cc3cccc(F)c3)c2c(=O)n1-c1ccccc1 has pIC50 at or above 7?
### Response false

### Prompt Dear colleague, could you confirm whether CC(COC(F)F)N1CCN(CC#Cc2cccc3nc([C@@H]4CCCN4c4ncnc(N)c4C#N)n(-c4ccccc4)c(=O)c23)CC1 (stereo partly specified) has pIC50 at or above 7?
### Response false

### Prompt Dear colleague, could you confirm whether CC[C@H](Nc1nc(N)nc(N)c1C#N)c1nc2cccc(C#CCCCC(=O)N3CCCC3)c2c(=O)n1-c1ccccc1 has pIC50 at or above 7?
### Response true

### Prompt Dear colleague, could you confirm whether Nc1nc(N)nc(N2CCC[C@H]2c2nc3cccc(C#CCCCC(=O)N4CCOCC4)c3c(=O)n2-c2ccccc2)n1 has pIC50 at or above 7?
### Response false
